- MEASURED_TARGET: human TSLP recombinant protein (human, UniProt Q969D9 29-159, biotinylated in the blocking and cell-binding assays (sites not given))
- EXPERIMENT: cell-based or functional assay
OBSERVATION_TYPE: Inhibition of Cell Proliferation IC50 (nM)
Write it as a number; the unit nM goes unstated.

Requested read-out: Inhibition of Cell Proliferation IC50. Entry: Murine anti-71G4 (mAb71G4) (antibody, V domains shown, also called murine antibody 71G4) VH: QVQLQQSGAELVMPGASVKMSCKASGYTFTDYWMHWVKQRPGQGLEWIGTIDNSDSDTTYNQKFKGKVTLTVDESSSTAYMQLSSLTSEDSAVYYCARSVDGYLDYWGQGTTLTVSS VL: EIQMTQSPASLSASVGETVTITCRTSENIYSYLAWYQQKQGKSPQLLVYFAKTLTDGVPSRLSGSGSGTQFSLKINSLQPEDFGSYYCQHHYGTPWTFGGGTKLEIK 30.7

Now examine the next entry.
Requested read-out: Inhibition of Cell Proliferation IC50. Entry: Ab24 (antibody, V domains shown, Humanized; also called h39G5VHv5/h71G4VKv1; h39G5VHv5/h71G4VKv1 hIgG1) VH: QVQLVQSGAEVKKPGSSVKVSCKASGYTFTDYWMHWVRQAPGQGLEWMGIIDPSDSDTSLNQKFQGRVTLTVDTSTSTAYMELSSLRSEDTAVYYCARSLDGYYDYWGQGTLVTVSS VL: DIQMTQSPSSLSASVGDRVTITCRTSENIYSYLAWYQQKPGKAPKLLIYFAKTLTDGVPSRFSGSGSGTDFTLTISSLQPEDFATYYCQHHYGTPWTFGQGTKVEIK 1.04

Values compiled from patent US20230029835A1.
